target-entity: T1, GPC3 endogenously expressed on HepG2 cells (UniProt P51654 25-554)
T1 construct: whole, on cells
assay-overview: FACS on HepG2 cells;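 note: flow cytometric binding of chimeric antibodies to cells, read as mean fluorescence intensity, EC50 obtained by curve fitting of the MFI data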
readout-name: Max MFI (MFI)
Please reply with the bare figure in MFI and do not write the unit itself.

Some binders with known Max MFI results, for comparison:
F4.13.7 human-murine chimeric antibody (antibody, human IgG1, kappa, V domains shown) VH: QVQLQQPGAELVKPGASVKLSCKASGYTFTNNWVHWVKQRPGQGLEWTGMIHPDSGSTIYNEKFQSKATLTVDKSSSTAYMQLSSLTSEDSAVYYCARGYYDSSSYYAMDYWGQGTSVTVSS VL: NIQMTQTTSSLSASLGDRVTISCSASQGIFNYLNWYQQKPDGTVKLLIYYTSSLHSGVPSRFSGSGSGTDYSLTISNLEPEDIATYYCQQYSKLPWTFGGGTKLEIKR : 1150
F1.9.19 human-murine chimeric antibody (antibody, human IgG1, kappa, V domains shown) VH: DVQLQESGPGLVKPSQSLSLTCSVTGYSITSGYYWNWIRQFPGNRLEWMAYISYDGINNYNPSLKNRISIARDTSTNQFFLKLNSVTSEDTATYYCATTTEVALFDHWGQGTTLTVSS VL: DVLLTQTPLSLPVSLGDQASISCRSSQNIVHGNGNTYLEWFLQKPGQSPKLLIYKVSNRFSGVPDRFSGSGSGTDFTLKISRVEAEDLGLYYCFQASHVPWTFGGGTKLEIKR : 3780
F1.153.1 human-murine chimeric antibody (antibody, human IgG1, kappa, V domains shown) VH: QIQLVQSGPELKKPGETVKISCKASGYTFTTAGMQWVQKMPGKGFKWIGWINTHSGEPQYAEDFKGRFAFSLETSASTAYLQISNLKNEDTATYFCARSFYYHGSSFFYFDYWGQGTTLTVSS VL: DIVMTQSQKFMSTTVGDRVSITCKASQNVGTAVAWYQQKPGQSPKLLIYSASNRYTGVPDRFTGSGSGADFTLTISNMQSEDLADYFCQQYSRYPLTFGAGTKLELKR : 4100
F2.39.2 human-murine chimeric antibody (antibody, human IgG1, kappa, V domains shown) VH: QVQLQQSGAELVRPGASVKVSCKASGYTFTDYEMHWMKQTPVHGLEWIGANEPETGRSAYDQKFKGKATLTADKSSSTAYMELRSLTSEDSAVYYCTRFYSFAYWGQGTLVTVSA VL: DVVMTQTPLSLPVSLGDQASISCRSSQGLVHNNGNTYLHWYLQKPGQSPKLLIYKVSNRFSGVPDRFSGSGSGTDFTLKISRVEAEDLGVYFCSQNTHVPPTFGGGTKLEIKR : 12700
F1.92.17 human-murine chimeric antibody (antibody, human IgG1, kappa, V domains shown) VH: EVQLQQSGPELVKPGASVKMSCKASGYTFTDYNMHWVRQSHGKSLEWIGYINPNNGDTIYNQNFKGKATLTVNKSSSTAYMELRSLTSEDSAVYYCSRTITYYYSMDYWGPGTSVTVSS VL: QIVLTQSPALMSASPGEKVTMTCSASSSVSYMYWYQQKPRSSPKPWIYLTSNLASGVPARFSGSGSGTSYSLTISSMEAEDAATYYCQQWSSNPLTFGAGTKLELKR : 2300

QUERY: Give a short answer stating reported Max MFI for F1.110.24 human-murine chimeric antibody (antibody, human IgG1, kappa, V domains shown) VH: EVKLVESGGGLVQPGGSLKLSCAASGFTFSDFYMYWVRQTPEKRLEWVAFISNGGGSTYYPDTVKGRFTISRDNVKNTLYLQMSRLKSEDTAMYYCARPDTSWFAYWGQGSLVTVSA VL: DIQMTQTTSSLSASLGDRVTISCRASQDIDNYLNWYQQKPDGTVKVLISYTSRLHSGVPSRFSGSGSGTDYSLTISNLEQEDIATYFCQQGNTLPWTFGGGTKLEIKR .
RESULT: 2270

QUERY: Give a short answer stating reported Max MFI for F1.42.8 human-murine chimeric antibody (antibody, human IgG1, kappa, V domains shown) VH: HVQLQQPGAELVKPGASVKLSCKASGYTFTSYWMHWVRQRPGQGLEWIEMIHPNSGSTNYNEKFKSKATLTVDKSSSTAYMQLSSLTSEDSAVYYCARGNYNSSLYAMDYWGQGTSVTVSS VL: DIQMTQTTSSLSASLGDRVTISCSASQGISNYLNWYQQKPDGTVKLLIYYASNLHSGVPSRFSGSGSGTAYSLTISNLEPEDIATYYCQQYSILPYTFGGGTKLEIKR .
RESULT: 2090

QUERY: Give a short answer stating reported Max MFI for F1.120.16 human-murine chimeric antibody (antibody, human IgG1, kappa, V domains shown) VH: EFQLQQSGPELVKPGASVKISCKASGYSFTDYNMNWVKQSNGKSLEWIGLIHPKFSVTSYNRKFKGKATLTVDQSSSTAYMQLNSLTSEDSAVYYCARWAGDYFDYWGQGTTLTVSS VL: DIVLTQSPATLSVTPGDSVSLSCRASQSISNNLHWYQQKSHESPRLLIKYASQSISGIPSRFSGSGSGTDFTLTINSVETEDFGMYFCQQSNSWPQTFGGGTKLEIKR .
RESULT: 2080

QUERY: Give a short answer stating reported Max MFI for F3.54.12 human-murine chimeric antibody (antibody, human IgG1, kappa, V domains shown) VH: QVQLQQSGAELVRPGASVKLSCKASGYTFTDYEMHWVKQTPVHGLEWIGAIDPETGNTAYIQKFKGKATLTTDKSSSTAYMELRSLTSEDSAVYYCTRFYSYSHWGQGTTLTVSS VL: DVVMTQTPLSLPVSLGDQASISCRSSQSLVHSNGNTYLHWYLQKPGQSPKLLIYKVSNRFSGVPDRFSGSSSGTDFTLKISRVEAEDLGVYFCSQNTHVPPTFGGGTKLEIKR .
RESULT: 4460

QUERY: Give a short answer stating reported Max MFI for F1.136.7 human-murine chimeric antibody (antibody, human IgG1, kappa, V domains shown) VH: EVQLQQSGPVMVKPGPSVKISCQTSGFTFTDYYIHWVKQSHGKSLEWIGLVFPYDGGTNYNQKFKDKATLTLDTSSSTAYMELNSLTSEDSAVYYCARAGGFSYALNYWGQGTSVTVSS VL: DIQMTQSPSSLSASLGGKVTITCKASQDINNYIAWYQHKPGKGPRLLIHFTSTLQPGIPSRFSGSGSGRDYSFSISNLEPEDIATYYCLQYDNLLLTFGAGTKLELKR .
RESULT: 2240
